B1: LINE1-mini (parent)
chain: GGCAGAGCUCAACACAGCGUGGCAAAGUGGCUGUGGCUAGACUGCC

# Variants of: B1
# TEST: self-cleavage, relative activity (ratio to wild type); higher = more cleavage; in vitro, sequencing; the parent is a self-cleaving ribozyme
Entries annotated with measured self-cleavage

Return reported self-cleavage; argument: G30C U34A
0.12

// next record G19U C46U
0.86

What do we get for G19U C46G ?
0.71

// next record C15G G35U
0.03

Check A4U A24U too.
0.21

Next: G30C A41U
0.73

Same question, A25G G30A this time
0.97

// repeat for U20A G40U and report
0.08

Do the same for A39G U43G please
0.12
